Data origin, for the record: patent US7211572B2

Kindly supply the reported IC50 values for the records listed here.
Assayed target: HIV integrase (Human immunodeficiency virus type 1 group M subtype B, UniProt P12497, F1332H)
Construct: HIV integrase full length gene; made in house; host or cells: Escherichia coli BL21(DE3), plasmid pET21a-INH
Assay explanation: Determination of enzyme (HIV integrase) inhibitory activity
Format: biochemical
Condition notes: recombinant HIV integrase (F185H), strand transfer ELISA, absorbance at 450 nm
Counter-ions that a name gives are not always drawn.

QUERY: I'd like to know its IC50. The compound in question is CC(C)C(=O)Nc1cn2ccn(Cc3ccc(F)cc3)c(=O)c2c(O)c1=O
RESULT: 10 to 100 nM

QUERY: Please answer likewise for O=C(Cc1ccc(F)cc1)Nc1cn2ccn(Cc3cccc(Cl)c3)c(=O)c2c(O)c1=O
RESULT: < 10 nM

QUERY: Please answer likewise for Cn1nc2ccn(Cc3cccc(Cl)c3)c(=O)c2c(O)c1=O
RESULT: 100 to 1000 nM

QUERY: Please answer likewise for O=C1c2c(O)c(=O)c(-c3nccs3)cn2CCN1Cc1cccc(F)c1
RESULT: 10 to 100 nM

QUERY: Please answer likewise for CC1(C)CN(Cc2ccc(F)cc2)C(=O)c2c(O)c(=O)c(Br)cn21 [Example 413, hydrochloride]
RESULT: 100 to 1000 nM

QUERY: Please answer likewise for O=c1c(-c2ccccc2O)cn2ccn(Cc3cccc(Cl)c3)c(=O)c2c1O
RESULT: < 10 nM

QUERY: Please answer likewise for O=C1c2c(O)c(=O)c(-c3cccnc3)cn2CCN1Cc1cccc(Cl)c1F [Example 328, hydrochloride]
RESULT: 10 to 100 nM

QUERY: Please answer likewise for CC(C)(C)C(=O)c1cn2c(c(O)c1=O)C(=O)N(Cc1ccc(F)c(Cl)c1)CC2 [Example 221, hydrochloride]
RESULT: < 10 nM

QUERY: Please answer likewise for O=C(NC(CCc1ccccc1)c1ccccc1)c1cn2c(c(O)c1=O)C(=O)N(Cc1cccc(Cl)c1)CC2 (stereo not drawn)
RESULT: 10 to 100 nM

QUERY: Please answer likewise for O=C(Nc1ccccc1)c1cn2ccn(Cc3cccc(Cl)c3)c(=O)c2c(O)c1=O [Example 196, hydrochloride]
RESULT: 10 to 100 nM

QUERY: Please answer likewise for O=C1c2c(O)c(=O)c3ccccc3n2CCN1Cc1cccc(Cl)c1
RESULT: 10 to 100 nM

QUERY: Please answer likewise for O=C(NCCN1CCCC1=O)c1cn2ccn(Cc3cccc(Cl)c3)c(=O)c2c(O)c1=O
RESULT: 10 to 100 nM
